# system: mouse ACVR2A (mouse, UniProt P27038 20-135, limits assumed); also: test concentration or dose not given here
# Sequence (P27038 20-135 limits assumed): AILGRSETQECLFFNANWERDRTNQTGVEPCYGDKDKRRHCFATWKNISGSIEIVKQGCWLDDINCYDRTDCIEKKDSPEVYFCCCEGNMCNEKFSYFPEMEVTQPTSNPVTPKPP
# test-protocol: ELISA
parameter-measured: optical density (OD)
# unit: OD | format: bare number

Please review the following examples before continuing.
| binder | optical density [OD] |
| --- | --- |
| 368_D09 (antibody, V domains shown, Group I) VH: EVQLLESGGGLVQPGGSLRLSCAASGFTFDSYGMHWVRQAPGKGLEWVAGINYNSGYKSYADSVKGRFTISRDNSKNTLYLQMNSLRAEDTAVYYCARAANWHDTHLDYWGQGTLVTVSS VL: DIQMTQSPSSLSASVGDRVTITCRASQSIVSYVNWYQQKPGKAPKLLIYAATSLASGVPSRFSGSGSGTDFTLTISSLQPEDFATYYCQQSYDNPLTFGGGTKVEIK | 2.11 |
| 365_E04 (antibody, V domains shown, Group I) VH: EVQLLESGGGLVQPGGSLRLSCAASGFTFDSYGMHWVRQAPGKGLEWVASINYNGGYKSYADSVKGRFTISRDNSKNTLYLQMNSLRAEDTAVYYCARAANWHDTALDYWGQGTLVTVSS VL: DIQMTQSPSSLSASVGDRVTITCRASQSILSYVNWYQQKPGKAPKLLIYAATSLASGVPSRFSGSGSGTDFTLTISSLQPEDFATYYCQQSYELPLTFGGGTKVEIK | 2.4 |
| 367_G03 (antibody, V domains shown, Group II) VH: EVQLLESGGGLVQPGGSLRLSCAASGFTFDSYSMHWVRQAPGKGLEWVANINYNGGYTSYADSVKGRFTISRDNSKNTLYLQMNSLRAEDTAVYYCARAATWHDTHLDYWGQGTLVTVSS VL: DIQMTQSPSSLSASVGDRVTITCRASQSIVSYVNWYQQKPGKAPKLVIYAATSRHSGVPSRFSGSGSGTDFTLTISSLQPEDFATYYCQQSYDLPLTFGGGTKVEIK | 2.63 |
| 365_B04 (antibody, V domains shown, Group I) VH: EVQLLESGGGLVQPGGSLRLSCAASGFTFSSYGMHWVRQAPGKGLEWVASINYNSGYTSYADSVKGRFTISRDNSKNTLYLQMNSLRAEDTAVYYCARAANWHDTALDYWGQGTLVTVSS VL: DIQMTQSPSSLSASVGDRVTITCRASQSILTYLNWYQQKPGKAPKLLIYAATSRHSGVPSRFSGSGSGTDFTLTISSLQPEDFATYYCQQSDESPLTFGGGTKVEIK | 2.18 |
| 366_D01 (antibody, V domains shown, Group I) VH: EVQLLESGGGLVQPGGSLRLSCAASGFTFSSYGMHWVRQAPGKGLEWVSSINYNGGYTGYADSVKGRFTISRDNSKNTLYLQMNSLRAEDTAVYYCARAANWHDTHLDYWGQGTLVTVSS VL: DIQMTQSPSSLSASVGDRVTITCRASQSILTYVNWYQQKPGKAPKLLIYAATSRASGVPSRFSGSGSGTDFTLTISSLQPEDFATYYCQQSYENPLTFGGGTKVEIK | 2.46 |
| 374_B07 (antibody, V domains shown, Group II) VH: EVQLLESGGGLVQPGGSLRLSCAASGFTFSSYGMHWVRQAPGKGLEWVSSINYNGGYKSYADSVKGRFTISRDNSKNTLYLQMNSLRAEDTAVYYCARAATWHDTHLDYWGQGTLVTVSS VL: DIQMTQSPSSLSASVGDRVTITCRASQSIISYLNWYQQKPGKAPKLLIYAATSLASGVPSRFSGSGSGTDFTLTISSLQPEDFATYYCQQSYESPLTFGGGTKVEIK | 3.71 |
| 375_C03 (antibody, V domains shown, Group II) VH: EVQLLESGGGLVQPGGSLRLSCAASGFTFDSYSMHWVRQAPGKGLEWVSGINYNGGYTSYADSVKGRFTISRDNSKNTLYLQMNSLRAEDTAVYYCARAATWHDTHLDYWGQGTLVTVSS VL: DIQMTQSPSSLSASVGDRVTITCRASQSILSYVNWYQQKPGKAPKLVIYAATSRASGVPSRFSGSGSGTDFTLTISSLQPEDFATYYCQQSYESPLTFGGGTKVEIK | 3.24 |
| 375_F12 (antibody, V domains shown, Group I) VH: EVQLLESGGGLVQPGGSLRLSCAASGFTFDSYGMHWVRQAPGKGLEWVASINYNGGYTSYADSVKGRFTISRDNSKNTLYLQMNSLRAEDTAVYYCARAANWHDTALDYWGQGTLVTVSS VL: DIQMTQSPSSLSASVGDRVTITCRASQSILTYLNWYQQKPGKAPKLVIYAATSRASGVPSRFSGSGSGTDFTLTISSLQPEDFATYYCQQSDELPLTFGGGTKVEIK | 3.14 |

Note down optical density recorded for 367_C06 (antibody, V domains shown, Group II) VH: EVQLLESGGGLVQPGGSLRLSCAASGFTFDSYSMHWVRQAPGKGLEWVASINYNGGYKSYADSVKGRFTISRDNSKNTLYLQMNSLRAEDTAVYYCARAATWHDTHLDYWGQGTLVTVSS VL: DIQMTQSPSSLSASVGDRVTITCRASQSILTYLNWYQQKPGKAPKLVIYAATSLHSGVPSRFSGSGSGTDFTLTISSLQPEDFATYYCQQSYDTPLTFGGGTKVEIK
2.51

Note down optical density recorded for 370_B06 (antibody, V domains shown, Group II) VH: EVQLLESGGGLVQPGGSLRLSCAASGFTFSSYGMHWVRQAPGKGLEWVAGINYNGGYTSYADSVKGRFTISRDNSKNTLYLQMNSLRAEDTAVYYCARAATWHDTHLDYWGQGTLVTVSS VL: DIQMTQSPSSLSASVGDRVTITCRASQSIVSYVNWYQQKPGKAPKLVIYAATSRASGVPSRFSGSGSGTDFTLTISSLQPEDFATYYCQQSYETPLTFGGGTKVEIK
3.09

The measurements presented in this section are drawn from patent US20210380703A1.
